Source of measurements: ChEMBL document CHEMBL5523727

test: Metabolic stability in Non human primate hepatocyte assessed as intrinsic clearance measured per million cells; format: ADME, cell-based; conditions: primates, hepatocytes; read-out: CLH
Observed property: hepatocyte CLint (µL/min/1e6 cells)
Answer with a number only, understood to be in µL/min/1e6 cells.

Summary for this compound, CC(C)(O)c1cc2nc([C@H]3CC[C@H](CN4CC5(CC(CCNc6cccc7c6C(=O)N(C6CCC(=O)NC6=O)C7=O)C5)C4)CC3)sc2cc1NC(=O)c1cccc(C(F)(F)F)n1 (stereo partly specified) [ZOMIRADOMIDE] : hepatocyte CLint is 2.7

---

Can you tell me bioavailability for the items I'm about to list?
assay: Oral bioavailability in rat at 10 mg/kg by LC-MS/MS analysis; format: ADME, organism-based; conditions: in vivo
Enter your answer as a number in %; do not include the unit.

Kindly note the recorded bioavailability for CC(C)(O)c1cc2nn([C@H]3CC[C@H](CN4CCC(O[C@H]5C[C@H](Nc6cccc7c6C(=O)N(C6CCC(=O)NC6=O)C7=O)C5)CC4)CC3)cc2cc1NC(=O)c1cccc(C(F)(F)F)n1 (stereo partly specified) , which is 29

// bioavailability value for CN(CCCO[C@H]1C[C@H](Nc2cccc3c2C(=O)N(C2CCC(=O)NC2=O)C3=O)C1)C[C@H]1CC[C@H](n2cc3cc(NC(=O)c4cccc(C(F)(F)F)n4)c(C(C)(C)O)cc3n2)CC1 (stereo partly specified) : 15

Record CC(C)(O)c1cc2nc([C@H]3CC[C@H](CN4CC5(CC(CCNc6cccc7c6C(=O)N(C6CCC(=O)NC6=O)C7=O)C5)C4)CC3)sc2cc1NC(=O)c1cccc(C(F)(F)F)n1 (stereo partly specified) [ZOMIRADOMIDE] . Reported bioavailability: 15

The reported bioavailability of the molecule COc1cc2nc([C@H]3CC[C@H](CN4CC5(CC(CCNc6cccc7c6C(=O)N(C6CCC(=O)NC6=O)C7=O)C5)C4)CC3)n(C)c2cc1NC(=O)c1cccc(C(F)(F)F)n1 (stereo partly specified) was 2.3

CC(C)(O)c1cc2nn([C@H]3CC[C@H](CN4CCC5(CC4)CC(Nc4cccc6c4C(=O)N(C4CCC(=O)NC4=O)C6=O)C5)CC3)cc2cc1NC(=O)c1cccc(C(F)(F)F)n1 (stereo partly specified) has a reported bioavailability of 17

---

test: Half life in dog plasma; format: ADME, cell-free, Canis lupus familiaris
Observed property: half-life (h)
Report the value in h with no unit label.

Given item CC(C)(O)c1cc2nc([C@H]3CC[C@H](CN4CC5(CC(CCNc6cccc7c6C(=O)N([C@H]6CCC(=O)NC6=O)C7=O)C5)C4)CC3)sc2cc1NC(=O)c1cccc(C(F)(F)F)n1 , the value recorded as its half-life is 2.58

half-life recorded for this compound, CC(C)(O)c1cc2nc([C@H]3CC[C@H](CN4CC5(CC(CCNc6cccc7c6C(=O)N([C@@H]6CCC(=O)NC6=O)C7=O)C5)C4)CC3)sc2cc1NC(=O)c1cccc(C(F)(F)F)n1 , is 3.07

---

assay: Oral bioavailability in dog at 2.1 mg/kg by LC-MS/MS analysis; type: ADME, organism-based, Canis lupus familiaris; details: in vivo
Observed property: bioavailability

Sample CC(C)(O)c1cc2nc([C@H]3CC[C@H](CN4CC5(CC(CCNc6cccc7c6C(=O)N(C6CCC(=O)NC6=O)C7=O)C5)C4)CC3)sc2cc1NC(=O)c1cccc(C(F)(F)F)n1 (stereo partly specified) [ZOMIRADOMIDE] ; bioavailability observed: 21%

---

assay: AUC in rat at 10 mg/kg, po by LC-MS/MS analysis; type: ADME, organism-based; conditions: in vivo, read-out: AUC
Observed property: log10(AUC) (log10 of the value in µM·h)
Hello, just confirming the data are log10 of AUC with units of µM·h.

// sample CN(CCCO[C@H]1C[C@H](Nc2cccc3c2C(=O)N(C2CCC(=O)NC2=O)C3=O)C1)C[C@H]1CC[C@H](n2cc3cc(NC(=O)c4cccc(C(F)(F)F)n4)c(C(C)(C)O)cc3n2)CC1 (stereo partly specified) , its log10(AUC) was -0.12

Documented log10(AUC) of CC(C)(O)c1cc2nn([C@H]3CC[C@H](CN4CCC(O[C@H]5C[C@H](Nc6cccc7c6C(=O)N(C6CCC(=O)NC6=O)C7=O)C5)CC4)CC3)cc2cc1NC(=O)c1cccc(C(F)(F)F)n1 (stereo partly specified) : 0.72

compound CC(C)(O)c1cc2nc([C@H]3CC[C@H](CN4CC5(CC(CCNc6cccc7c6C(=O)N(C6CCC(=O)NC6=O)C7=O)C5)C4)CC3)sc2cc1NC(=O)c1cccc(C(F)(F)F)n1 (stereo partly specified) [ZOMIRADOMIDE] , log10(AUC) observed: 0.43

Form field log10(AUC), entry COc1cc2nc([C@H]3CC[C@H](CN4CC5(CC(CCNc6cccc7c6C(=O)N(C6CCC(=O)NC6=O)C7=O)C5)C4)CC3)cn2cc1NC(=O)c1cccc(C(F)(F)F)n1 (stereo partly specified) : -2.00

The compound listed as CC(C)(O)c1cc2nn([C@H]3CC[C@H](CN4CCC5(CC4)CC(Nc4cccc6c4C(=O)N(C4CCC(=O)NC4=O)C6=O)C5)CC3)cc2cc1NC(=O)c1cccc(C(F)(F)F)n1 (stereo partly specified) has a reported log10(AUC) of 0.15

Reported log10(AUC) for COc1cc2nc([C@H]3CC[C@H](CN4CC5(CC(CCNc6cccc7c6C(=O)N(C6CCC(=O)NC6=O)C7=O)C5)C4)CC3)n(C)c2cc1NC(=O)c1cccc(C(F)(F)F)n1 (stereo partly specified) was -1.05

---

assay: Volume of distribution at steady state in Non human primate at 0.2 mg/kg, iv by LC-MS/MS analysis; format: ADME, organism-based; settings: primates, in vivo, read-out: Vdss
Observed property: Vd
I'd appreciate it if you wrote the number followed by its unit.

Just so you know, measured Vd for CC(C)(O)c1cc2nc([C@H]3CC[C@H](CN4CC5(CC(CCNc6cccc7c6C(=O)N(C6CCC(=O)NC6=O)C7=O)C5)C4)CC3)sc2cc1NC(=O)c1cccc(C(F)(F)F)n1 (stereo partly specified) [ZOMIRADOMIDE] came out at 5.8 L/kg

---

assay: Metabolic stability in human liver microsomes assessed as intrinsic clearance at 1 uM measured upto 60 mins in presence of NADPH by UPLC/MS-MS analysis; format: ADME, Microsome; conditions: read-out: CLH
Tag: label 1 if measured microsomal CLint at 1 µM is not below 7 µL/min/mg, label 0 if it is.

IN: Tell me whether microsomal CLint at 1 µM is at least 7 µL/min/mg here: CN(CCCO[C@H]1C[C@H](Nc2cccc3c2C(=O)N(C2CCC(=O)NC2=O)C3=O)C1)C[C@H]1CC[C@H](n2cc3cc(NC(=O)c4cccc(C(F)(F)F)n4)ccc3n2)CC1 (stereo partly specified)
OUT: label 1

IN: Could you verify whether the entry CN(CCCOc1cccc2c1CN(C1CCC(=O)NC1=O)C2=O)C[C@H]1CC[C@H](n2cc3cc(NC(=O)c4cccc(C(F)(F)F)n4)c(C(C)(C)O)cc3n2)CC1 (stereo partly specified) shows microsomal CLint at 1 µM of no less than 7 µL/min/mg?
OUT: label 1

IN: Quick check: does CN(CCCNc1cccc2c1C(=O)N(C1CCC(=O)NC1=O)C2=O)C[C@H]1CC[C@H](n2cc3cc(NC(=O)c4cccc(C(F)(F)F)n4)c(C(C)(C)O)cc3n2)CC1 (stereo partly specified) have microsomal CLint at 1 µM greater than or equal to 7 µL/min/mg?
OUT: label 1

IN: Determine whether this molecule has microsomal CLint at 1 µM no lower than 7 µL/min/mg: CC(C)(O)c1cc2nn([C@H]3CC[C@H](CN4CCC5(CC4)CC(Nc4cccc6c4C(=O)N(C4CCC(=O)NC4=O)C6=O)C5)CC3)cc2cc1NC(=O)c1cccc(C(F)(F)F)n1 (stereo partly specified)
OUT: label 0

IN: Does COc1cc2nc([C@H]3CC[C@H](CN4CC5(CC(CCNc6cccc7c6C(=O)N(C6CCC(=O)NC6=O)C7=O)C5)C4)CC3)sc2cc1NC(=O)c1cccc(C(F)(F)F)n1 (stereo partly specified) have a reported microsomal CLint at 1 µM of at least 7 µL/min/mg?
OUT: label 0

IN: Tell me whether microsomal CLint at 1 µM is at least 7 µL/min/mg here: CN(C[C@H]1CC[C@H](n2cc3cc(NC(=O)c4cccc(C(F)(F)F)n4)c(C(C)(C)O)cc3n2)CC1)[C@H]1CC[C@]2(CC1)C[C@H](Nc1cccc3c1C(=O)N(C1CCC(=O)NC1=O)C3=O)C2 (stereo partly specified)
OUT: label 0

IN: Hi, just wondering whether CN(C[C@H]1CC[C@H](n2cc3cc(NC(=O)c4cccc(C(F)(F)F)n4)c(C(C)(C)O)cc3n2)CC1)[C@H]1CC[C@@]2(CC1)C[C@H](Nc1cccc3c1C(=O)N(C1CCC(=O)NC1=O)C3=O)C2 (stereo partly specified) shows microsomal CLint at 1 µM of 7 µL/min/mg or higher.
OUT: label 0

IN: Could you please find out whether COc1cc2nc([C@H]3CC[C@H](CN4CC5(CC(CCNc6cccc7c6C(=O)N(C6CCC(=O)NC6=O)C7=O)C5)C4)CC3)cn2cc1NC(=O)c1cccc(C(F)(F)F)n1 (stereo partly specified) has microsomal CLint at 1 µM that meets 7 µL/min/mg or exceeds it?
OUT: label 0

IN: Item CC(C)(O)c1cc2nn([C@H]3CC[C@H](CN4CCC(O[C@H]5C[C@H](Nc6cccc7c6C(=O)N(C6CCC(=O)NC6=O)C7=O)C5)CC4)CC3)cc2cc1NC(=O)c1cccc(C(F)(F)F)n1 (stereo partly specified) with microsomal CLint at 1 µM of 7 µL/min/mg or above?
OUT: label 0

IN: Tell me whether microsomal CLint at 1 µM is at least 7 µL/min/mg here: CN(CCCN(C)c1cccc2c1C(=O)N(C1CCC(=O)NC1=O)C2=O)C[C@H]1CC[C@H](n2cc3cc(NC(=O)c4cccc(C(F)(F)F)n4)c(C(C)(C)O)cc3n2)CC1 (stereo partly specified)
OUT: label 1

IN: Decide: is the reported value of microsomal CLint at 1 µM for COc1cc2nn([C@H]3CC[C@H](CN4CCC5(CC4)CC(CNc4cccc6c4C(=O)N(C4CCC(=O)NC4=O)C6=O)C5)CC3)cc2cc1NC(=O)c1cccc(C(F)(F)F)n1 (stereo partly specified) equal to or greater than 7 µL/min/mg?
OUT: label 0

IN: Can COc1cc2nn([C@H]3CC[C@H](CN4CC5(CC(CCNc6cccc7c6C(=O)N(C6CCC(=O)NC6=O)C7=O)C5)C4)CC3)cc2cc1NC(=O)c1cccc(C(F)(F)F)n1 (stereo partly specified) be said to have microsomal CLint at 1 µM at or above 7 µL/min/mg?
OUT: label 0

IN: Decide: is the reported value of microsomal CLint at 1 µM for CN(CCCOCCCNc1cccc2c1C(=O)N(C1CCC(=O)NC1=O)C2=O)C[C@H]1CC[C@H](n2cc3cc(NC(=O)c4cccc(C(F)(F)F)n4)c(C(C)(C)O)cc3n2)CC1 (stereo partly specified) equal to or greater than 7 µL/min/mg?
OUT: label 1

IN: Decide: is the reported value of microsomal CLint at 1 µM for CN(CCCO[C@H]1C[C@H](Nc2cccc3c2C(=O)N(C2CCC(=O)NC2=O)C3=O)C1)C[C@H]1CC[C@H](n2cc3cc(NC(=O)c4cccc(C(F)(F)F)n4)c(C(C)(C)O)cc3n2)CC1 (stereo partly specified) equal to or greater than 7 µL/min/mg?
OUT: label 1

IN: Quick check: does COc1cc2nn([C@H]3CC[C@H](CN(C)CCCO[C@H]4C[C@H](Nc5cccc6c5C(=O)N(C5CCC(=O)NC5=O)C6=O)C4)CC3)cc2cc1NC(=O)c1cccc(C(F)(F)F)n1 (stereo partly specified) have microsomal CLint at 1 µM greater than or equal to 7 µL/min/mg?
OUT: label 1

IN: Answer whether microsomal CLint at 1 µM of O=C1CCC(N2C(=O)c3cccc(NCC4CC5(CCN(C[C@H]6CC[C@H](n7cc8cc(NC(=O)c9cccc(C(F)(F)F)n9)c(C(F)F)cc8n7)CC6)CC5)C4)c3C2=O)C(=O)N1 (stereo partly specified) is greater than or equal to 7 µL/min/mg.
OUT: label 0

IN: Is microsomal CLint at 1 µM for CN(CCCO[C@H]1C[C@@H](Nc2cccc3c2C(=O)N(C2CCC(=O)NC2=O)C3=O)C1)C[C@H]1CC[C@H](n2cc3cc(NC(=O)c4cccc(C(F)(F)F)n4)c(C(C)(C)O)cc3n2)CC1 (stereo partly specified) at or above 7 µL/min/mg?
OUT: label 1

IN: Exam item: decide whether the reported microsomal CLint at 1 µM for CN(CCCO[C@H]1C[C@H](Nc2cccc3c2C(=O)N(C2CCC(=O)NC2=O)C3=O)C1)C[C@H]1CC[C@H](n2cc3cc(NC(=O)c4cccc(C(F)(F)F)n4)c(C(F)F)cc3n2)CC1 (stereo partly specified) is at least 7 µL/min/mg.
OUT: label 1

IN: Exam item: decide whether the reported microsomal CLint at 1 µM for COc1cc2nc([C@H]3CC[C@H](CN4CC5(CC(CCNc6cccc7c6C(=O)N(C6CCC(=O)NC6=O)C7=O)C5)C4)CC3)oc2cc1NC(=O)c1cccc(C(F)(F)F)n1 (stereo partly specified) is at least 7 µL/min/mg.
OUT: label 0

IN: # bool: microsomal CLint at 1 µM of CC(C)(O)c1cc2nn([C@H]3CC[C@H](CN4CCC5(CC4)CC(CNc4cccc6c4C(=O)N(C4CCC(=O)NC4=O)C6=O)C5)CC3)cc2cc1NC(=O)c1cccc(C(F)(F)F)n1 (stereo partly specified) >= 7 µL/min/mg
OUT: label 0
